Assay: Plasma pharmacokinetics of bimiralisib, non-compartmental analysis (LC-MS)
Format: in vivo, human
Settings: human, plasma, oral, 140 mg, Intermittent Dose Schedule A, 140 mg, Day -3, 6 patients; read-out: AUC0–24 Geometric Mean (%CV)
ASSAY_READOUT: AUC(0-t) (ng·h/mL)
One number for each entry, in ng·h/mL.

*Q* Endpoint output: AUC(0-t) of Nc1cc(C(F)(F)F)c(-c2nc(N3CCOCC3)nc(N3CCOCC3)n2)cn1 . Value?
*A* 5810

---

Assay: Plasma pharmacokinetics of bimiralisib, non-compartmental analysis (LC-MS)
Type: in vivo, human
Settings: human, plasma, oral, 100 mg, Intermittent Dose Schedule B, 100 mg, Day 1, 7 patients; read-out: Cmax Mean (%CV)
ASSAY_READOUT: Cmax (µg/mL)
Answers are plain numbers, in µg/mL.

*Q* Need Cmax of Nc1cc(C(F)(F)F)c(-c2nc(N3CCOCC3)nc(N3CCOCC3)n2)cn1 [bimiralisib] , thanks.
*A* 0.562
